biological target: ER (Homo sapiens, UniProt P03372); construct: endogenous in cells; probably T47D or MCF-7; test: In-cell Western (ICW) ER degradation assay in MCF-7 cells; type: cell-based; settings: MCF7, MCF-7 cells, 16 hrs; read-out: ER MCF7 ICW Dmax (%)
Sequence (P03372 whole entry): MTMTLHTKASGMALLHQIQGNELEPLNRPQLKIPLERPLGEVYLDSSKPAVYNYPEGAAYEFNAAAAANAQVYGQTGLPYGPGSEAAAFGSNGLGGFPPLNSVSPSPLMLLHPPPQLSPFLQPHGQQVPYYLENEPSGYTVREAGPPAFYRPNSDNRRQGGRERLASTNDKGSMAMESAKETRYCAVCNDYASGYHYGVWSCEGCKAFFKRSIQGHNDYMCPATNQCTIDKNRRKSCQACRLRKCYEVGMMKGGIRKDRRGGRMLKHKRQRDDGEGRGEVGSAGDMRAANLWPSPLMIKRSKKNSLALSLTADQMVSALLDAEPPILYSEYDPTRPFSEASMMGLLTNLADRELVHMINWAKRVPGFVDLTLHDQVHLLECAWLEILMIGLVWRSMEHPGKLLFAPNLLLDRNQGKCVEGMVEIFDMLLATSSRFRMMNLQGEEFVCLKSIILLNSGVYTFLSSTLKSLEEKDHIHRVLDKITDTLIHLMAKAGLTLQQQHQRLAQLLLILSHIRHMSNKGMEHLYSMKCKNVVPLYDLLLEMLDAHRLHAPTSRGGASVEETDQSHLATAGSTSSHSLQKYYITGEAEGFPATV
metric: Dmax

# compound, experimentalValue
data = [
    ("C[C@H]1Cc2c(ccc3[nH]ncc23)[C@H](c2ccc(N3CCC4(CC3)CC(CN3CCN(c5ccc(C(=O)NC6CCC(=O)NC6=O)nc5)CC3)C4)cn2)N1CC(F)(F)F (stereo in doubt) [Compound A9]", "50 to 75%"),
    ("C[C@H]1Cc2c(ccc3[nH]ncc23)[C@H](c2ccc(N3CCC4(CC3)CC(CN3CCC(c5ccc(NC6CCC(=O)NC6=O)cc5)CC3)C4)cn2)N1CC(F)(F)F (stereo in doubt) [Compound A10]", "50 to 75%"),
    ("C[C@@H]1Cc2c(ccc3[nH]ncc23)[C@@H](c2ccc(N3CCC4(CC3)CC(CN3CCN5c6ccc7c(c6OC[C@H]5C3)CN([C@H]3CCC(=O)NC3=O)C7=O)CO4)nc2)N1CC(F)(F)F (some centres unmarked) [Compound A22]", "50 to 75%"),
    ("C[C@@H]1Cc2c(ccc3[nH]ncc23)[C@@H](c2ccc(N3CCC4(CC3)CC(CN3CCN5c6cc7c(cc6OC[C@H]5C3)C(=O)N([C@@H]3CCC(=O)NC3=O)C7)C4)cn2)N1CC1(F)CC1 [Compound A14]", "50 to 75%"),
    ("C[C@H]1Cc2c(ccc3[nH]ncc23)[C@H](c2ccc(N3CCC4(CC3)CC(CN3CCN5c6cc7c(cc6OC[C@@H]5C3)C(=O)N([C@@H]3CCC(=O)NC3=O)C7)C4)cn2)N1CC1(F)CC1 (stereo in doubt) [Compound A13]", "25 to 50%"),
    ("C[C@@H]1Cc2c(ccc3[nH]ncc23)[C@@H](c2c(F)cc(N3CCC(CN4CCN5c6ccc7c(c6OC[C@@H]5C4)CN(C4CCC(=O)NC4=O)C7=O)CC3)cc2F)N1CC(F)F (some centres unmarked) [Compound A2]", "50 to 75%"),
    ("C[C@@H]1Cc2c(ccc3[nH]ncc23)[C@@H](c2ccc(N3CC4(CCC(CN5CCN6c7ccc8c(c7OC[C@H]6C5)CN([C@H]5CCC(=O)NC5=O)C8=O)CC4)C3)cn2)N1CC1(F)CC1 [Compound A11]", "> 75%"),
    ("C[C@@H]1Cc2c(ccc3[nH]ncc23)[C@@H](c2ccc(N3CCC4(CC3)CC(CN3CCN5c6ccc7c(c6OC[C@H]5C3)CN([C@H]3CCC(=O)NC3=O)C7=O)C4)cn2)N1CC1(F)CC1 [Compound A4]", "50 to 75%"),
    ("C[C@H]1Cc2c(ccc3[nH]ncc23)[C@@H](c2ccc(N3CC4(CCC(CN5CCN6c7ccc8c(c7OC[C@@H]6C5)CN([C@@H]5CCC(=O)NC5=O)C8=O)CC4)C3)nc2)N1CC(F)(F)F (stereo in doubt) [Compound A18]", "50 to 75%"),
    ("C[C@@H]1Cc2c(ccc3[nH]ncc23)[C@@H](c2ccc(N3CCC4(CC3)CC(CN3CCN5c6cc7c(cc6OC[C@@H]5C3)C(=O)N([C@@H]3CCC(=O)NC3=O)C7)C4)cn2)N1CC1(F)CC1 [Compound A12]", "> 75%"),
    ("C[C@H]1Cc2c(ccc3[nH]ncc23)[C@@H](c2ccc(N3CCC(CN4CCN5c6cc7c(cc6OC[C@H]5C4)C(=O)N([C@@H]4CCC(=O)NC4=O)C7)CC3)nc2)N1CC(F)(F)F (stereo in doubt) [Compound A20]", "25 to 50%"),
]
